- Assayed system: T1, AFP158/HLA-A*02:01 complex (human)
- T1 construct: biotinylated on the BSP by BirA for ELISA and panning; also called biotinylated AFP158/HLA-A*02:01 complex; Bio-AFP158
- Procedure summary: SPR; vs AS170036 VL1VH1;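 also: crude scFv captured on sensor chip, peptide–HLA complex flowed over at several concentrations, KD estimated from association and dissociation kinetic rates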
Measured attribute: Affinity increase (fold)
One number for each entry, in fold.

AS170036 VL1VH1 HL107T (scFv) scFv: QSALTQPRSVSGSPGQSVTISCAGTSSDVGSENYVSWYQQHPGKAPKLMIYQVNKRASGVPDRFSGSKSGNTASLTISGLQAEDEADYYCASYRSSDHNIVFGGGTKLTVLGGGGSGGGGSGGGGSEVQLVESGGGLVQPGGSLRLSCAASGFTFSSYAMSWVRQAPGKGLEWVSTINSGTGSPYYADSVKGRFTISRDNSKNTLYLQMNSLRAEDTAVYYCAKNFFDGSWFTGPPAMDYWGQGTLVTVSSHHHHHH
0.1

I have 7 binders here; please give me Affinity increase for each one.
1. AS170036 VL1VH1 HG108R (scFv) scFv: QSALTQPRSVSGSPGQSVTISCAGTSSDVGSENYVSWYQQHPGKAPKLMIYQVNKRASGVPDRFSGSKSGNTASLTISGLQAEDEADYYCASYRSSDHNIVFGGGTKLTVLGGGGSGGGGSGGGGSEVQLVESGGGLVQPGGSLRLSCAASGFTFSSYAMSWVRQAPGKGLEWVSTINSGTGSPYYADSVKGRFTISRDNSKNTLYLQMNSLRAEDTAVYYCAKNFFDGSWFLRPPAMDYWGQGTLVTVSSHHHHHH
2. AS170036 VL1VH1 HL107G (scFv) scFv: QSALTQPRSVSGSPGQSVTISCAGTSSDVGSENYVSWYQQHPGKAPKLMIYQVNKRASGVPDRFSGSKSGNTASLTISGLQAEDEADYYCASYRSSDHNIVFGGGTKLTVLGGGGSGGGGSGGGGSEVQLVESGGGLVQPGGSLRLSCAASGFTFSSYAMSWVRQAPGKGLEWVSTINSGTGSPYYADSVKGRFTISRDNSKNTLYLQMNSLRAEDTAVYYCAKNFFDGSWFGGPPAMDYWGQGTLVTVSSHHHHHH
3. AS170036 VL1VH1 HW105M (scFv) scFv: QSALTQPRSVSGSPGQSVTISCAGTSSDVGSENYVSWYQQHPGKAPKLMIYQVNKRASGVPDRFSGSKSGNTASLTISGLQAEDEADYYCASYRSSDHNIVFGGGTKLTVLGGGGSGGGGSGGGGSEVQLVESGGGLVQPGGSLRLSCAASGFTFSSYAMSWVRQAPGKGLEWVSTINSGTGSPYYADSVKGRFTISRDNSKNTLYLQMNSLRAEDTAVYYCAKNFFDGSMFLGPPAMDYWGQGTLVTVSSHHHHHH
4. AS170036 VL1VH1-VHG108A (scFv) scFv: QSALTQPRSVSGSPGQSVTISCAGTSSDVGSENYVSWYQQHPGKAPKLMIYQVNKRASGVPDRFSGSKSGNTASLTISGLQAEDEADYYCASYRSSDHNIVFGGGTKLTVLGGGGSGGGGSGGGGSEVQLVESGGGLVQPGGSLRLSCAASGFTFSSYAMSWVRQAPGKGLEWVSTINSGTGSPYYADSVKGRFTISRDNSKNTLYLQMNSLRAEDTAVYYCAKNFFDGSWFLAPPAMDYWGQGTLVTVSSHHHHHH
5. AS170036 VL1VH1 HG108L (scFv) scFv: QSALTQPRSVSGSPGQSVTISCAGTSSDVGSENYVSWYQQHPGKAPKLMIYQVNKRASGVPDRFSGSKSGNTASLTISGLQAEDEADYYCASYRSSDHNIVFGGGTKLTVLGGGGSGGGGSGGGGSEVQLVESGGGLVQPGGSLRLSCAASGFTFSSYAMSWVRQAPGKGLEWVSTINSGTGSPYYADSVKGRFTISRDNSKNTLYLQMNSLRAEDTAVYYCAKNFFDGSWFLLPPAMDYWGQGTLVTVSSHHHHHH
6. AS170036 VL1VH1-VHG108E (scFv) scFv: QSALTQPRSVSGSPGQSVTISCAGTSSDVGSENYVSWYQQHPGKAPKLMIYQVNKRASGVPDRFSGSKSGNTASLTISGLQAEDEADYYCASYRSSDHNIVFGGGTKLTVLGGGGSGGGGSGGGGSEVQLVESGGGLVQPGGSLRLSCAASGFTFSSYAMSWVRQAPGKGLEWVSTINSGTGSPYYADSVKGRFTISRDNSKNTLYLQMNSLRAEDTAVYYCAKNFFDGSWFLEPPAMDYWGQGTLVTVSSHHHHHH
7. AS170036 VL1VH1 HD102I (scFv) scFv: QSALTQPRSVSGSPGQSVTISCAGTSSDVGSENYVSWYQQHPGKAPKLMIYQVNKRASGVPDRFSGSKSGNTASLTISGLQAEDEADYYCASYRSSDHNIVFGGGTKLTVLGGGGSGGGGSGGGGSEVQLVESGGGLVQPGGSLRLSCAASGFTFSSYAMSWVRQAPGKGLEWVSTINSGTGSPYYADSVKGRFTISRDNSKNTLYLQMNSLRAEDTAVYYCAKNFFIGSWFLGPPAMDYWGQGTLVTVSSHHHHHH

1. 0.2
2. 0.1
3. 0.2
4. 5.5
5. 1.4
6. 4.1
7. 0.1

Reported Affinity increase, binder AS170036 VL1VH1 HS57N (scFv) scFv: QSALTQPRSVSGSPGQSVTISCAGTSSDVGSENYVSWYQQHPGKAPKLMIYQVNKRASGVPDRFSGSKSGNTASLTISGLQAEDEADYYCASYRSSDHNIVFGGGTKLTVLGGGGSGGGGSGGGGSEVQLVESGGGLVQPGGSLRLSCAASGFTFSSYAMSWVRQAPGKGLEWVSTINSGTGNPYYADSVKGRFTISRDNSKNTLYLQMNSLRAEDTAVYYCAKNFFDGSWFLGPPAMDYWGQGTLVTVSSHHHHHH : ____
1.5
